test: qHTS of pediatric cancer cell lines to identify multiple opportunities for drug repurposing: Confirmatory screen for NB1643 cells (AID 1347109); conditions: NB1643 neuroblastoma cell viability; series mostly up to 45.9 µM; also: nearly all actives have a fitted effect of over 45% in size
Inconclusive results are not listed. Calls of active or inactive are those of the source. Calls follow the shape of the dose curve; as a rule, active = well fitted cell-killing curve with a large enough effect; inconclusive = small, poorly fitted or top-dose-only effect, or effect the other way; inactive = no such curve, though single readings can be large or run the other way.
Outcomes: active, inactive

>>> category_label("NC1=N[C@@]2(c3cc(NC(=O)c4ccc(F)cn4)ccc3F)COC[C@@H]2CS1")
"inactive"
>>> category_label("CC1(C)S[C@H]2[C@H](NC(=O)[C@@H](N)c3ccc(O)cc3)C(=O)N2[C@@H]1C(=O)O")
"inactive"
>>> category_label("O=c1[nH]cnc2c1ncn2[C@H]1CC[C@@H](CO)O1")
"inactive"
>>> category_label("COc1cc(N2CCC(N3CCN(C)CC3)CC2)ccc1Nc1ncc(Cl)c(Nc2ccccc2S(=O)(=O)C(C)C)n1")
"active"
>>> category_label("CN(C)C1CCN(C(=O)c2ccc(NC(=O)Nc3nc(N4CCOCC4)nc(N4CCOCC4)n3)cc2)CC1")
"active"
>>> category_label("O=C(Nc1cccc(Br)c1)c1cccc(S(=O)(=O)N2CCCCCC2)c1")
"inactive"
>>> category_label("CC1(C)CCC(CN2CCN(c3ccc(C(=O)NS(=O)(=O)c4ccc(NCC5CCOCC5)c([N+](=O)[O-])c4)c(Oc4cnc5[nH]ccc5c4)c3)CC2)=C(c2ccc(Cl)cc2)C1")
"active"
>>> category_label("Cc1cc(OCCCc2c(C(=O)O)n(Cc3cccnc3)c3c(-c4c(COc5ccc(N6CCN([S+](C)(=O)[O-])CC6)cc5)nn(C)c4C)cccc23)cc(C)c1Cl")
"active"

* * *

test: qHTS of pediatric cancer cell lines to identify multiple opportunities for drug repurposing: Primary screen for BT-12 cells (AID 1347101); details: BT-12 viability, CellTiter-Glo luminescence, 48 h; series mostly up to 57.3 µM; also: nearly all actives have a fitted effect of over 25% in size
Records with an inconclusive call do not appear. Calls of active or inactive are those of the source. The call rests on the fitted dose curve; in most records, active means well fitted cell-killing curve with a large enough effect; inconclusive means small, poorly fitted or top-dose-only effect; inactive means flat fitted curve, though single readings scatter.
Outcomes: 1 for active, 0 for inactive

>>> category_label("NC[C@@H]1O[C@@H](O[C@H]2[C@@H](O)[C@H](O[C@@H]3[C@@H](O)[C@@H](N)C[C@H](N)[C@H]3O[C@H]3O[C@H](CN)[C@@H](O)[C@@H](O)[C@H]3N)O[C@H]2CO)[C@H](N)[C@@H](O)[C@@H]1O")
0
>>> category_label("O=C(NCc1ccccc1)c1csc(Nc2ccncn2)n1")
1
>>> category_label("CC(=O)N[C@@H](CS)C(=O)O")
0
>>> category_label("NC(CO)(CO)CCc1ccc(Sc2cccc(OCc3ccccc3)c2)cc1Cl")
1
>>> category_label("CN[C@@H](C)C(=O)N[C@H]1CN(C(=O)CC(C)C)CC[C@H]2CC[C@@H](C(=O)NC(c3ccccc3)c3ccccc3)N2C1=O")
1
>>> category_label("CC=CCC=CCCC(=O)[C@H]1O[C@@H]1C(N)=O")
0
>>> category_label("Cc1ccccc1C(C(=O)NC1CCCCC1)N(C(=O)Cn1ccnc1C)c1cccc(F)c1 (stereo unspecified)")
0
>>> category_label("C[N+](C)(C)CCCCCC[N+](C)(C)C")
0
>>> category_label("CC(C)(C)c1cc(C(=O)O)c(NC(=O)Nc2ccc3[nH]ncc3c2)s1")
0
>>> category_label("CC(C)(C)c1ccc(C(O)CCCN2CCC(C(O)(c3ccccc3)c3ccccc3)CC2)cc1 (stereo unspecified)")
0
>>> category_label("CCOC1OC(=O)C[C@H]1NC(=O)[C@@H]1CCCN1C(=O)[C@@H](NC(=O)c1ccc(N)c(Cl)c1)C(C)(C)C (stereo partly specified)")
1
>>> category_label("CC(C)OC(=O)CCCC=CC[C@@H]1[C@H](C=C[C@@H](O)COc2cccc(C(F)(F)F)c2)[C@H](O)C[C@@H]1O")
1
>>> category_label("O=C(O)c1ccccc1C(=O)Nc1ccc(-c2ccccc2)cc1")
0
>>> category_label("CN(C)CCC=C1c2ccccc2COc2ccc(CC(=O)O)cc21")
0
>>> category_label("Cc1cnc(C(=O)O)c[n+]1[O-]")
0
>>> category_label("COc1ccc2c3c1OC1C[C@@H](O)C=C[C@@]31CCN(C)C2 (stereo partly specified)")
0
>>> category_label("c1ccc2c(-c3cnn4cc(-c5ccc(N6CCNCC6)cc5)cnc34)ccnc2c1")
1
>>> category_label("CC(C)n1nc(-c2ccc3oc(N)nc3c2)c2c(N)ncnc21")
1
>>> category_label("CC(=O)c1ccc(S(=O)(=O)NC(=O)NC2CCCCC2)cc1")
0
>>> category_label("NS(=O)(=O)c1cccc2c1C(=O)c1cccc(O)c1C2=O")
1
>>> category_label("CCCCCN(C)CCC(O)(P(=O)(O)O)P(=O)(O)O")
0

* * *

assay: Quantitative High-Throughput drug screen in 47 multiple myeloma cell lines against the NCATS MIPE library collection: KMS11_JCRBsus cell viability assay (AID 1919873); details: KMS11 myeloma viability, CellTiter-Glo ATP luminescence, 48 h; series mostly up to 45.8 µM; also: nearly all actives have a fitted effect of over 50% in size; also: potency is read from the fitted curve at half-maximal effect
Results filed as inconclusive are left out. Active and inactive are the calls of the source. The call rests on the fitted dose curve; in most records, active means well fitted cell-killing curve with a large enough effect; inconclusive means small, poorly fitted or top-dose-only effect, or effect the other way; inactive means no such curve, though single readings can be large or run the other way.
Observable: Potency

>>> result("CC=CCC(C)C(O)C1C(=O)NC(CC)C(=O)N(C)CC(=O)N(C)C(CC(C)C)C(=O)NC(C(C)C)C(=O)N(C)C(CC(C)C)C(=O)NC(C)C(=O)NC(C)C(=O)N(C)C(CC(C)C)C(=O)N(C)C(CC(C)C)C(=O)N(C)C(C(C)C)C(=O)N1C (stereo not given)")
"inactive"
>>> result("O=C(NC1CCOCC1)c1ccc(-c2cc(-c3cn[nH]c3-c3ccccn3)ccn2)cc1")
"inactive"
>>> result("O=C(NCc1ccccc1)c1csc(Nc2ccncn2)n1")
"26.4 µM (active)"
>>> result("CO[C@H]1C(=O)[C@]2(C)[C@@H](OC)C[C@H]3OC[C@@]3(OC(C)=O)[C@H]2[C@H](OC(=O)c2ccccc2)[C@]2(O)C[C@H](OC(=O)[C@H](O)[C@@H](NC(=O)OC(C)(C)C)c3ccccc3)C(C)=C1C2(C)C")
"inactive"
>>> result("COC(=O)N[C@H](C(=O)N1CCC[C@@H]1c1ncc(-c2ccc(-c3ccc(-c4cnc([C@@H]5CCCN5C(=O)[C@@H](NC(=O)OC)C(C)C)[nH]4)cc3)cc2)[nH]1)C(C)C")
"26.4 µM (active)"
>>> result("CC(C)(C)COc1ccc(-n2cc(C(=O)O)cn2)cc1C#N")
"inactive"
>>> result("CC=CC(=O)N(CC)c1ccccc1C")
"inactive"
>>> result("NC(=O)NN=Cc1ccc([N+](=O)[O-])o1")
"inactive"
>>> result("O=C(O)c1ccccc1C(=O)Nc1ccc(-c2ccccc2)cc1")
"inactive"
>>> result("O=c1cc(CN2CCOCC2)occ1OCCCCCSc1ccnc2cc(C(F)(F)F)ccc12")
"23.5 µM (active)"
>>> result("CON=C(C(=O)N[C@@H]1C(=O)N2C(C(=O)OCOC(=O)C(C)(C)C)=C(C=Cc3scnc3C)CS[C@H]12)c1csc(N)n1")
"inactive"
>>> result("CC[C@H]1OC(=O)[C@H](C)[C@@H](O[C@H]2C[C@@](C)(OC)[C@@H](O)[C@H](C)O2)[C@H](C)[C@@H](O[C@@H]2O[C@H](C)C[C@H](N(C)C)[C@@H]2O)[C@](C)(O)C[C@@H](C)CN(C)[C@H](C)[C@@H](O)[C@]1(C)O")
"inactive"
>>> result("O=C(OCC#CCSc1nnc(-c2cccc3ccccc23)o1)c1cc2ccccc2s1")
"inactive"
>>> result("O=C(Nc1cc(Cl)cc2c1[nH]c1cnccc12)c1cccnc1")
"inactive"
>>> result("CC(=O)O[C@]1(C(C)=O)CC[C@@H]2[C@@H]3C[C@H](C)C4=CC(=O)CC[C@]4(C)[C@H]3CC[C@@]21C")
"20.9 µM (active)"

* * *

experiment: Quantitative High-Throughput drug screen in 47 multiple myeloma cell lines against the NCATS MIPE library collection: JIM1_ECACC cell viability assay (AID 1918964); settings: JIM1 myeloma viability, CellTiter-Glo ATP luminescence, 48 h; series mostly up to 45.8 µM
Results filed as inconclusive are left out. The source made the active and inactive calls. The call rests on the fitted dose curve; in most records, active means well fitted cell-killing curve with a large enough effect; inconclusive means small, poorly fitted or top-dose-only effect, or effect the other way; inactive means no such curve, though single readings can be large or run the other way.
Outcomes: active, inactive

>>> category_label("CC(C)(C)c1cc(C(=O)O)c(NC(=O)Nc2ccc3[nH]ncc3c2)s1")
"inactive"
>>> category_label("Nc1ncnc2ccccc12")
"inactive"
>>> category_label("O=C(OCC#CCSc1nnc(-c2cccc3ccccc23)o1)c1cc2ccccc2s1")
"inactive"
>>> category_label("Cc1ccc(C(=O)Nc2cccc(C(F)(F)F)c2)cc1Nc1nc(-c2cccnc2)nc2c1cnn2C")
"inactive"
>>> category_label("CCc1ccc(OCc2ccccc2C(=O)Nc2ccc3nc(C)cc(N)c3c2)cc1")
"active"
>>> category_label("COc1cc2ncnc(Nc3ccc(F)c(Cl)c3)c2cc1OCCCN1CCOCC1")
"active"
>>> category_label("O=C(O)C(O)Cc1ccc(O)c(O)c1 (stereo not given)")
"inactive"
>>> category_label("Nc1ncnc2c1ncn2[C@@H]1O[C@@H](CO)[C@H](O)[C@H]1O")
"inactive"
>>> category_label("Clc1ccc(C(c2ccc(Cl)cc2)n2cc[n+](CC(OCc3ccc(Cl)cc3Cl)c3ccc(Cl)cc3Cl)c2)cc1 (stereo not given)")
"active"
>>> category_label("CCCCCN(C)CCC(O)(P(=O)(O)O)P(=O)(O)O")
"inactive"
